Reference source: patent US4556673A

# System: arrhythmia in guinea-pigs after infusion of ouabain
# testSummary: Ouabain-induced arrhythmia in guinea-pigs
# experimentalParameters: 6 mg/kg iv; 5 min. after adm.
Classify: criterion met when HR ± SE, 5 min. after adm. of test compound is strictly less than 300 beats/min.; criterion not met when HR ± SE, 5 min. after adm. of test compound is not.

>>> classlabel("CCCCNS(=O)(=O)CCN1C(=O)c2ccccc2C1=O [2-Phthalimidoethanesulfone n-butylamide]")
"criterion met"

# strict comparison: is reported HR ± SE, 5 min. after adm. of test compound < 300 beats/min.? input = CNS(=O)(=O)CCN1C(=O)c2ccccc2C1=O [2-Phthalimidoethanesulfone methylamide]
criterion met

# strict comparison: is reported HR ± SE, 5 min. after adm. of test compound < 300 beats/min.? input = CCNS(=O)(=O)CCN1C(=O)c2ccccc2C1=O [2-Phthalimidoethanesulfone ethylamide]
criterion met

# strict comparison: is reported HR ± SE, 5 min. after adm. of test compound < 300 beats/min.? input = CC(=O)NS(=O)(=O)CCN1C(=O)c2ccccc2C1=O [2-Phthalimidoethanesulfonyl acetamide, 2-phthalimidoethanesulfonyl acetamide]
criterion not met

---

# Test system: arrhythmia in guinea-pigs after infusion of ouabain
# testSummary: Ouabain-induced arrhythmia in guinea-pigs
# experimentalParameters: O-value (initial); group dosed 6 mg/kg iv
Listed here: items and their measured HR ± SE, O-value.
Quick note: unit goes after the number.

Some entries whose results are on file:
>>> obsvalue("CC(=O)NS(=O)(=O)CCN1C(=O)c2ccccc2C1=O [2-Phthalimidoethanesulfonyl acetamide, 2-phthalimidoethanesulfonyl acetamide]")
"329 ± 15 beats/min."
>>> obsvalue("CCCCNS(=O)(=O)CCN1C(=O)c2ccccc2C1=O [2-Phthalimidoethanesulfone n-butylamide]")
"256 ± 19 beats/min."
>>> obsvalue("CNS(=O)(=O)CCN1C(=O)c2ccccc2C1=O [2-Phthalimidoethanesulfone methylamide]")
"261 ± 45 beats/min."
>>> obsvalue("CCNS(=O)(=O)CCN1C(=O)c2ccccc2C1=O [2-Phthalimidoethanesulfone ethylamide]")
"285 beats/min."

Given CC(C)NS(=O)(=O)CCN1C(=O)c2ccccc2C1=O , state its recorded HR ± SE, O-value.
303 beats/min.

---

# Test system: convulsions induced by electrical stimulation (maximal electroshock)
# testSummary: Maximal electroshock test (MES), 50 mA electrical stimulation
# Format: in vivo, mice
# experimentalParameters: Mus musculus, ip, mice, maximal electroshock test; read-out: Anticonvulsive activity ED50, MES
measuredAttribute: ED50 (mg/kg)
Number in mg/kg, nothing else.

Some entries whose results are on file:
>>> obsvalue("CCCCNS(=O)(=O)CCN1C(=O)c2ccccc2C1=O [2-Phthalimidoethanesulfone n-butylamide]")
219
>>> obsvalue("CN(C)S(=O)(=O)CCN1C(=O)c2ccccc2C1=O [2-Phthalimidoethanesulfone dimethylamide, 2-phthalimidoethanesulfone dimethylamide]")
113
>>> obsvalue("CCCNS(=O)(=O)CCN1C(=O)c2ccccc2C1=O [2-Phthalimidoethanesulfone n-propylamide]")
252
>>> obsvalue("NS(=O)(=O)CCN1C(=O)c2ccccc2C1=O [2-Phthalimidoethanesulfone amide, 2-phthalimidoethane sulfonamide]")
122
>>> obsvalue("CNS(=O)(=O)CCN1C(=O)c2ccccc2C1=O [2-Phthalimidoethanesulfone methylamide]")
112

--- query ---
Given CCNS(=O)(=O)CCN1C(=O)c2ccccc2C1=O [2-Phthalimidoethanesulfone ethylamide] , state its recorded ED50.
103
